Biological target: γ-secretase complex (Homo sapiens)
Test: APP-C99 counter assay (GSI reporter assay)
Assay type: cell-based
Parameters: scale not given here
Settings: area under the 14-point dose-response curve; replicates averaged
outcomeMeasure: AUC APP
Field format: numeric only.

Field: example entries. Status: answers known.
- molecule: "Cc1ccccc1CN1CCC2(CC1)OCCc1c2[nH]c2ccc(Br)cc12"
  measuredResult: 724.9
- molecule: "CC(C)(C(=O)NCC(F)(F)C(F)(F)F)C(=O)N[C@@H]1C(=O)Nc2ccccc2-c2ccccc21 [RO4929097, reference compound]"
  measuredResult: 527.4
- molecule: "Cc1ccccc1C(=O)NC(=S)Nc1sc2c(c1C(N)=O)CCC2"
  measuredResult: 533.6
- molecule: "O=C(Nc1nnc(-c2ccc3c(c2)OCCO3)o1)c1ccccc1F"
  measuredResult: 502.9
- molecule: "COc1cc(Nc2nc(-c3cccc(Cl)c3)cn3ccnc23)cc(OC)c1OC"
  measuredResult: 485.9
- molecule: "COc1cc(Nc2nc(-c3cccc(O)c3)cn3ccnc23)cc(OC)c1OC"
  measuredResult: 487.2

Assign AUC APP to the following record: CC1CCc2c(sc3ncnc(NCCCN4CCCCCC4=O)c23)C1 (stereo not drawn) 578.1

Assign AUC APP to the following record: CCc1c(C(=O)N(C)Cc2cnn(C(C)C)c2)[nH]c2ccccc12 658.8

Assign AUC APP to the following record: COc1cccc(Nc2nc(-c3cccnc3)cn3ccnc23)c1 517.0

----------
Molecular target: γ-secretase complex (Homo sapiens)
Experiment: APP-C99 counter assay (GSI reporter assay)
Format: cell-based
Details: overview in comparison to compound C; Supplemental Fig. 9
outcomeMeasure: APP assay

- molecule: "CC1=C(C(=O)OC2CCCCC2)C(c2ccc([N+](=O)[O-])cc2)C2=C(CC(C)(C)CC2=O)N1 (centres unmarked) [FLI-06, reference compound]"
  APP assay: "active, potency n.d."
- molecule: "C[C@H](NC(=O)Cc1cc(F)cc(F)c1)C(=O)N[C@H](C(=O)OC(C)(C)C)c1ccccc1 [DAPT, reference compound]"
  APP assay: "higher potency"
- molecule: "CC(C)(C(=O)NCC(F)(F)C(F)(F)F)C(=O)N[C@@H]1C(=O)Nc2ccccc2-c2ccccc21 [RO4929097, reference compound]"
  APP assay: "higher potency"
- molecule: "CC(C)[C@H](O)C(=O)N[C@@H](C)C(=O)N[C@@H]1C(=O)N(C)CCc2ccccc21 [LY-450139, Semagacestat, reference compound]"
  APP assay: "active, potency n.d."
- molecule: "NC(=O)[C@@H](CC1CC1)[C@@H](CCC(F)(F)F)C(=O)N[C@H]1N=C(c2ccccc2)c2cccc(F)c2NC1=O [BMS-983970, reference compound]"
  APP assay: "higher potency"

Attention now turns to another entry.
Assign APP assay to the following record: C[C@H](NC(=O)Cc1cc(F)cc(F)c1)C(=O)N[C@@H]1C(=O)N(C)c2ccccc2-c2ccccc21 [YO-01027, reference compound] higher potency

----------
Target: γ-secretase complex (Homo sapiens, UniProt P49768)
Assay: APP-C99 counter assay (GSI reporter assay)
Format: cell-based
Settings: 24 h; 1,25µM; APP-C99 counter assay; read-out: 3p-DR in % of DMSO counter
outcomeMeasure: remaining activity at […] (%)
Reply with just the number (in %).

- compound: "CC(=O)N1CCc2sccc2C1c1ccccc1NCc1ccoc1 (stereo not shown)"
  assaySystem: "γ-secretase complex (Homo sapiens, UniProt P49768)"
  remaining activity at […] (%): 147

Attention now turns to another entry.
Assign remaining activity at […] to the following record: Cc1ccc2[nH]c3c(c2c1)CCOC31CCN(Cc2ccccc2-c2ccccc2)CC1 100

Data provenance is paper PMC13242511.
